- Tested on: RXRa homodimer (NR concentration 180 nM)
- Assay name: PBM binding z-score (relative to random genomic background probes); higher = stronger binding; sequences stand for … in GC…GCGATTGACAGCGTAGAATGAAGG
Overview of reported PBM binding z-score across a group of sequences:

{"columns": ["Biosequence", "PBM binding z-score"],
 "data": [
  ["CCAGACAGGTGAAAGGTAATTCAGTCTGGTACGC", 1.68],
  ["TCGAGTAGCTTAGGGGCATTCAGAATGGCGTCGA", 0.216],
  ["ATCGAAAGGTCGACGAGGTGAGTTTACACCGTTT", 4.05],
  ["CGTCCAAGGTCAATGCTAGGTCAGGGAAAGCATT", 5.08],
  ["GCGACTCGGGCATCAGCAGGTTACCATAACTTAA", 0.133],
  ["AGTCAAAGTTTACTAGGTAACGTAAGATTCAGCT", 0.16],
  ["ATAGAAAGGTCGACGAGGTGAGTATACACCGTTT", 4.18],
  ["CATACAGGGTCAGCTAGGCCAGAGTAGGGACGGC", 4.42],
  ["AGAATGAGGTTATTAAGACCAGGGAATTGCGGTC", 1.91],
  ["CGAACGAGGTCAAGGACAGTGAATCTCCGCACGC", 7.03],
  ["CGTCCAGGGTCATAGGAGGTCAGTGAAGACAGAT", 6.72],
  ["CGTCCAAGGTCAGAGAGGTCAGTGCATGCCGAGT", 5.11],
  ["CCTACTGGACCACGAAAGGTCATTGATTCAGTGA", 5.46],
  ["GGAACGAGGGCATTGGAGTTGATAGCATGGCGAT", 0.72],
  ["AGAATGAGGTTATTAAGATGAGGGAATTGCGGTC", 1.87],
  ["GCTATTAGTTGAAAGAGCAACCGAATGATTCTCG", 0.226],
  ["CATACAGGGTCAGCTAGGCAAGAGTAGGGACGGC", 4.03],
  ["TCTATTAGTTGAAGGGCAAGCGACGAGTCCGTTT", 0.725],
  ["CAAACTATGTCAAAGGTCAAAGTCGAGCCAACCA", 8.43],
  ["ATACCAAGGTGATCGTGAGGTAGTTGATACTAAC", 0.329],
  ["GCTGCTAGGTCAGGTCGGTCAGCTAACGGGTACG", 1.23],
  ["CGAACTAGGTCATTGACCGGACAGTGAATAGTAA", 2.82],
  ["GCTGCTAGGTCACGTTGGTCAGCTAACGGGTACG", 3.09],
  ["TCTGCGAGGTCAGTTGGTCAGCTAACGAGCTGCC", 3.76],
  ["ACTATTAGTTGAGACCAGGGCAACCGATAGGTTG", 0.3],
  ["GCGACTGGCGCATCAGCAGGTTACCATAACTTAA", -0.293]
]}
